All figures here come from patent US20110071197A1.

molecular target: Recombinant human LTC4 synthase (Homo sapiens, UniProt Q16873); construct: made in house; host or cells: Pichia pastoris; assay: LTC4 synthase in vitro assay (HTRF detection of LTC4); assay type: biochemical; details: total concentration of title compound in the assay 10 μM; HTRF method
Sequence (Q16873 whole entry): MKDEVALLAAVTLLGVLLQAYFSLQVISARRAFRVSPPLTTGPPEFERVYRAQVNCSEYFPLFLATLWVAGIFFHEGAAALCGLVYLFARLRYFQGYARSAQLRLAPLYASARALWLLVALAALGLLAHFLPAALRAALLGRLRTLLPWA

SMILES_DATA	inhibition at 10 µM (%)
CCCCOc1ccc(S(=O)(=O)Nc2ccc(Oc3ccc(NC(=O)c4ccc(OC(C)C)cc4)c(C(=O)O)c3)cc2/C=C/C(=O)O)cc1	100
CN(c1cc(Oc2ccc(Nc3ccc(C(=O)C4CC4)cc3)cc2)cc(C(=O)O)c1)c1ccc(F)c(F)c1	95
O=C(Nc1ccc(Oc2ccc(NS(=O)(=O)c3ccc(C(F)(F)F)cc3Cl)cc2)cc1C(=O)O)c1ccc(C(F)(F)F)cc1	97
CCCCc1ccc(S(=O)(=O)N(C)c2ccc(Oc3ccc(NC(=O)c4ccc(C)cc4)c(C(=O)O)c3)cc2)cc1	99
CCCCOc1ccc(S(=O)(=O)Nc2ccc(Oc3cccc(NCc4cccc(F)c4F)c3)cc2C(=O)O)cc1	100
O=C(Nc1ccc(Oc2ccc(NC(=O)c3cccc(Cl)c3)c(C(=O)O)c2)cc1C(=O)O)c1ccc([N+](=O)[O-])cc1	100
CCCCOc1ccc(S(=O)(=O)Nc2ccc(Oc3cccc(NCc4cccc(OC)c4OC)c3)cc2C(=O)O)cc1	99
CC(C)(C)c1ccc(C(=O)Nc2ccc(Oc3ccc(NC(=O)c4ccc(Cl)nc4Cl)c(C(=O)O)c3)cc2)cc1	96
Cc1c(Cl)cccc1S(=O)(=O)Nc1ccc(Oc2cc(Nc3ccc(F)c(F)c3)cc(C(=O)O)c2)cc1	98
O=C(NS(=O)(=O)c1cccc(Cl)c1F)c1cccc(Oc2ccc(Nc3ccc(Cl)cc3)c(C(=O)O)c2)c1	97
CCCCOc1ccc(S(=O)(=O)Nc2ccc(Oc3cccc(C(=O)NS(=O)(=O)c4ccc(F)cc4)c3)cc2C(=O)OC(C)(C)C)cc1	99
O=C(O)c1cc(Oc2ccc(Nc3ccc(Cl)cc3)cc2)ccc1Nc1ccc(Cl)cc1	96
O=C(O)Cc1cc(Oc2ccc(NC(=O)c3ccc(C(F)(F)F)cc3F)c(C(=O)O)c2)ccc1NC(=O)c1cc(Cl)ccc1O	98
O=C(O)c1cc(Oc2ccc(Nc3ccc(F)c(F)c3)cn2)ccc1Nc1ccc(F)c(F)c1	97
CC(C)(C)c1ccc(C(=O)Nc2cccc(Oc3ccc(NS(=O)(=O)c4ccc(C(C)(C)C)cc4)c(C(=O)O)c3)c2)cc1	97
CCCCc1ccc(C(=O)Nc2ccc(Oc3ccc(N(C(=O)c4ccc(CCCC)cc4)c4ccc(F)cc4)cc3)cc2C(=O)O)cc1	83
CCCCOc1ccc(S(=O)(=O)Nc2ccc(Oc3cccc(NCc4cccc(Cl)c4Cl)c3)cc2C(=O)O)cc1	98
CCCCc1ccc(C(=O)Nc2cccc(Oc3ccc(NC(=O)c4ccc(OC(F)(F)F)cc4)c(C(=O)O)c3)c2)cc1	88
CCCCc1ccc(C(=O)Nc2ccc(Oc3ccc(NC(=O)c4ccccc4)c(C(=O)O)c3)cc2)cc1	99
O=C(Nc1ccc(Oc2ccc(NC(=O)c3ccc([N+](=O)[O-])cc3)c(C(=O)O)c2)cc1C(=O)O)c1ccc([N+](=O)[O-])cc1	97
CCCCN(c1ccc(Oc2ccc(Nc3ccc(F)c(F)c3)c(C(=O)O)c2)cc1)c1ccc(F)c(F)c1	93
COc1ccc(S(=O)(=O)N(C)c2ccc(Oc3ccc(NC(=O)c4ccccc4OC(F)(F)F)c(C(=O)O)c3)cc2)cc1	97
CC(C)Oc1ccc(C(=O)Nc2ccc(Oc3ccc(NC(=O)c4ccc(Cl)cc4Cl)c(CC(=O)O)c3)cc2C(=O)O)cc1	98
CCCCOc1ccc(S(=O)(=O)NC(=O)c2cccc(Oc3ccc(Nc4ccc(Cl)cc4)c(C(=O)O)c3)c2)cc1	100
